experiment: NCI Yeast Anticancer Drug Screen. Data for the mlh1 rad18 strain (AID 175); conditions: S. cerevisiae mlh1 rad18 strain growth inhibition; at 50.0 µM; hits give high values
About 79,000 compounds went through this panel and 15% of them were active in at least one assay; those are over-represented in the sample as a whole.
measuredQuantity: growth inhibition (%)
Express your answer in %, writing the number without its unit.

compound	measurementUnit	growth inhibition
CC(Br)CCc1ccccc1Br (centres undefined)	%	10.7

Here's the next entry for you.
Would you kindly share the measured growth inhibition for `COc1ccc(COC(=O)Nc2cccc(Cl)c2)cc1OC` ? 35.8

* * *

test: NCI Yeast Anticancer Drug Screen. Data for the cln2 rad14 strain (AID 165);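 also: 0% = growth equal to vehicle treated cultures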; details: S. cerevisiae cln2 rad14 strain, at 50.0 µM, hits give high values
The panel holds about 79,000 compounds, 15% with a hit somewhere; the sample as a whole holds those more often. Where a SMILES comes first, the peptide text is derived from it. The star is where a group is joined. Boc = CC(C)(C)OC(=O)*
Entries and their measured growth inhibition follow.
Express your answer in %, writing the number without its unit.

# example entries with known answers
compound	measurementUnit	growth inhibition
C=CCOc1cc(=O)[nH]c2ccccc12	%	-51.1
CCCC(=O)Nc1cn(COC)c(C(=O)N2C[C@H]3C[C@@]34C2=CC(=O)c2[nH]cc(C)c24)n1	%	19.9
C1=Nc2ccccc2/C1=C/c1cccs1	%	-47.4

Would you kindly share the measured growth inhibition for CC1C(O)CC2(C(C)C)CC12 (configuration not stated) ? 12.3

Would you kindly share the measured growth inhibition for `Cc1cc(C)c(NC(=O)Nc2ccccc2F)cc1C` ? 24.7

Would you kindly share the measured growth inhibition for COC(=O)C(Cc1c[nH]c2ccccc12)NC(=O)C(Cc1c[nH]c2ccccc12)NC(=O)C(Cc1c[nH]c2ccccc12)NC(=O)C(Cc1c[nH]c2ccccc12)NC(=O)OC(C)(C)C (configuration not stated) (Boc-WWWW-OMe; configuration not given here) ? 23.4

Values from PubChem BioAssay (NCI)
